Source listed as ChEMBL document CHEMBL5625263.

- methodSummary: Half life in rat
- Format: ADME
- conditionsUsed: in vivo
endpoint: half-life (h)

{"columns": ["compound", "resultUnit", "observedValue"],
 "data": [
  ["CC1CCCOc2nc(ccc2C(N)=O)-n2c(=O)[nH]c3nccc(c32)O1 (stereo unspecified)", "h", 2.2]
]}

###

- methodSummary: Selectivity ratio of inhibition of AURB (unknown origin) to inhibition of PKC theta (unknown origin) at 1 mM ATP concentration
The entries below are paired with their reported Selectivity ratio.

{"columns": ["molecule", "Selectivity ratio"],
 "data": [
  ["CC1CCN2c3nc(ccc3C(=O)NC2(C)C)-n2c(=O)[nH]c3nccc(c32)O1 (stereo not given)", 253],
  ["CC1CCN(C)c2c(F)cnc3cc(F)c(nc23)-n2c(=O)[nH]c3nccc(c32)O1 (stereo not given)", "> 8330"],
  ["CC1CC(C)Oc2ccnc3[nH]c(=O)n(c23)-c2cccc(n2)O1 (stereo not given)", "> 370"],
  ["CC1CCC(C)n2ccc(=O)c3ccc(nc32)-n2c(=O)[nH]c3nccc(c32)O1 (stereo not given)", 2850],
  ["CC1CCCOc2nc(ccc2C(N)=O)-n2c(=O)[nH]c3nccc(c32)O1 (stereo not given)", 763]
]}

###

Listing of recorded Selectivity ratio by entry.
- methodSummary: Selectivity ratio of inhibition of TRKA (unknown origin) to inhibition of PKC theta (unknown origin) at 1 mM ATP concentration
endpoint: Selectivity ratio

{"columns": ["compound", "sign", "observedValue"],
 "data": [
  ["CC1CCN2c3nc(ccc3C(=O)NC2(C)C)-n2c(=O)[nH]c3nccc(c32)O1 (stereo not given)", "=", 5180],
  ["CC1CCCOc2nc(ccc2C(N)=O)-n2c(=O)[nH]c3nccc(c32)O1 (stereo not given)", "=", 491],
  ["CC1CCN(C)c2c(F)cnc3cc(F)c(nc23)-n2c(=O)[nH]c3nccc(c32)O1 (stereo not given)", "=", 353],
  ["CC1CC(C)Oc2ccnc3[nH]c(=O)n(c23)-c2cccc(n2)O1 (stereo not given)", ">", 370],
  ["CC1CCC(C)n2ccc(=O)c3ccc(nc32)-n2c(=O)[nH]c3nccc(c32)O1 (stereo not given)", "=", 2200]
]}

###

Measured Selectivity ratio accompanies every entry in the list below.
- methodSummary: Selectivity ratio of inhibition of RSK3 (unknown origin) to inhibition of PKC theta (unknown origin) at 1 mM ATP concentration
endpoint: Selectivity ratio

{"columns": ["compound", "endpoint", "sign", "observedValue"],
 "data": [
  ["CC1CCC(C)n2ccc(=O)c3ccc(nc32)-n2c(=O)[nH]c3nccc(c32)O1 (stereo not given)", "Selectivity ratio", "=", 4910],
  ["CC1CCCOc2nc(ccc2C(N)=O)-n2c(=O)[nH]c3nccc(c32)O1 (stereo not given)", "Selectivity ratio", "=", 311],
  ["CC1CC(C)Oc2ccnc3[nH]c(=O)n(c23)-c2cccc(n2)O1 (stereo not given)", "Selectivity ratio", ">", 370],
  ["CC1CCN2c3nc(ccc3C(=O)NC2(C)C)-n2c(=O)[nH]c3nccc(c32)O1 (stereo not given)", "Selectivity ratio", "=", 2260],
  ["CC1CCN(C)c2c(F)cnc3cc(F)c(nc23)-n2c(=O)[nH]c3nccc(c32)O1 (stereo not given)", "Selectivity ratio", "=", 649]
]}
